- assayed_system: TACE enzyme (Homo sapiens (Human))
- Sequence (P78536 215-824 limits assumed): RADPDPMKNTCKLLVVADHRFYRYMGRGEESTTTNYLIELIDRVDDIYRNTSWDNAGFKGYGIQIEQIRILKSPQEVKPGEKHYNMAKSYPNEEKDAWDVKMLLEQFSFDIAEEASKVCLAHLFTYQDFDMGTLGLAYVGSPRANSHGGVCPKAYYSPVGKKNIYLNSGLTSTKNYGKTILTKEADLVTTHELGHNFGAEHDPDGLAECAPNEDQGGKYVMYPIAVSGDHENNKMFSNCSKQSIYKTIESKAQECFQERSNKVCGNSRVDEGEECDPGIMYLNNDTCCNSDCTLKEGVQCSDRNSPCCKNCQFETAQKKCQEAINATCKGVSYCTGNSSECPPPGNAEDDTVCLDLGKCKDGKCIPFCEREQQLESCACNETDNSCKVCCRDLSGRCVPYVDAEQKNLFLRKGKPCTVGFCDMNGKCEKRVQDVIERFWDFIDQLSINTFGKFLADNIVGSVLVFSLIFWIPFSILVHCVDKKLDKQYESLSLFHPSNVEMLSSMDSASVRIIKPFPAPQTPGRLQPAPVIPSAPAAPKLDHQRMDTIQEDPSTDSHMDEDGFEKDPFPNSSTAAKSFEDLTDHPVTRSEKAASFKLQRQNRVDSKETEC
- method_notes: Enzymatic assay for TACE inhibition (fluorescent substrate)
- Assay type: biochemical
- condition_set: enzymatic assay, substrate 40 μM; read-out: IC50-TACE
pIC50: −log10 of the molar value.
Tick met if pIC50 is 7 or greater. Tick not met if pIC50 is less than 7.

IN: Hello, I need to know if `Cc1cc(COc2ccc(S(=O)(=O)NC[C@@H](C(=O)NO)N3CCN(C(=O)C(C)C)CC3)cc2)c2ccccc2n1` has measured pIC50 not below 7. Thanks!
OUT: met

IN: Quick check, pIC50 >= 7? `CC#CCOc1ccc(S(=O)(=O)NC[C@@H](C(=O)NO)N2CCN(S(C)(=O)=O)CC2)cc1`
OUT: met

IN: Is reported pIC50 greater than or equal to 7 here: `CS(=O)(=O)N1CCN([C@@H](CNS(=O)(=O)c2ccc(OCc3cccc4ccccc34)cc2)C(=O)NO)CC1`
OUT: met

IN: Quick check, pIC50 >= 7? `CS(=O)(=O)N1CCN([C@@H](CNS(=O)(=O)c2ccc(OCc3ccnc4ccccc34)cc2)C(=O)NO)CC1`
OUT: not met

IN: Check this compound for pIC50 at or above 7: `Cc1cc(COc2ccc(S(=O)(=O)NC[C@@H](C(=O)NO)N3CCN(S(C)(=O)=O)CC3)cc2)c2ccccc2n1`
OUT: met

====

- assayed_system: MMP3 (Homo sapiens (Human))
- Sequence (P08254 100-477, species assumed): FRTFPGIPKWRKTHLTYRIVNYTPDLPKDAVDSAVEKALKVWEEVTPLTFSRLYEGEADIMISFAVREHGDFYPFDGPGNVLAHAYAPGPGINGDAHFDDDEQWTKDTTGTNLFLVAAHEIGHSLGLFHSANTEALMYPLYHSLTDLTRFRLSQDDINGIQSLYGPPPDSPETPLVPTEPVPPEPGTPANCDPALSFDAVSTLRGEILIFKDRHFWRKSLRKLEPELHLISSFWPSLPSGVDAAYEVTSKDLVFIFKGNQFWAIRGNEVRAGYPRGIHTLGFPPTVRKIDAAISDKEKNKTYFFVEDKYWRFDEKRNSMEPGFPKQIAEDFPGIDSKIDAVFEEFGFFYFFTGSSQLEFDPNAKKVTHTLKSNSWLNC
- method_notes: Selectivity assay, MMP3
- Format: biochemical
readout_type: IC50 (nM)
Reply with just the number (in nM).

Entry under test: Cc1cc(COc2ccc(S(=O)(=O)NC[C@@H](C(=O)NO)N3CCN(Cc4ccc(C(F)(F)F)cc4)CC3)cc2)c2ccccc2n1 [Example 20] . Its IC50 was 4780

Looking up Cc1cc(COc2ccc(S(=O)(=O)NC[C@@H](C(=O)NO)N3CCN(S(=O)(=O)CC(C)C)CC3)cc2)c2ccccc2n1 [Example 24] , I found its IC50 recorded as 1880

IC50 for CC1(C)SCCN(S(=O)(=O)c2ccc(OCC#CCO)cc2)[C@H]1C(=O)NO [Apratastat, reference compound] is 10

Recorded result, Cc1cc(COc2ccc(S(=O)(=O)NC[C@@H](C(=O)NO)N3CCN(S(=O)(=O)C(C)C)CC3)cc2)c2ccccc2n1 [Example 26] , IC50: 574

IC50 in this record for Cc1ccc(CN2CCN([C@@H](CNS(=O)(=O)c3ccc(OCc4cc(C)nc5ccccc45)cc3)C(=O)NO)CC2)cc1 [Example 21] : 887

====

- assayed_system: ADAM10 (Homo sapiens (Human), UniProt O14672)
- Sequence (O14672 214-748, species assumed): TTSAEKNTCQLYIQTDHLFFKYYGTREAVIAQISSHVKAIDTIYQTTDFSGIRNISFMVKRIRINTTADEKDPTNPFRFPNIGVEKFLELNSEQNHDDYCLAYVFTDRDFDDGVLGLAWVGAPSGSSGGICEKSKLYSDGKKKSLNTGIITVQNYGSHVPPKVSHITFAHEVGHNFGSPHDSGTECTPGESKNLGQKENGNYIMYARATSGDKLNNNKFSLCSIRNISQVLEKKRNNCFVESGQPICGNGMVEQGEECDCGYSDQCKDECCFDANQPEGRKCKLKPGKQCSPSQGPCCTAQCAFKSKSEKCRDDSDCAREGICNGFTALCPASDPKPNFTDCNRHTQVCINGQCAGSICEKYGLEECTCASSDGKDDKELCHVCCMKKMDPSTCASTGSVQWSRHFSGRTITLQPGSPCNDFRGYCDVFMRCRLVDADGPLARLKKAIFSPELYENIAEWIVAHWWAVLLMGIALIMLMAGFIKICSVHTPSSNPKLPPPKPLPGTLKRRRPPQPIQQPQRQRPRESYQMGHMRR
- method_notes: Selectivity assay, ADAM10
readout_type: pIC50
// field semantics: pIC50 = negative decimal log of concentration (mol/L)

Summary for this compound, CC1(C)SCCN(S(=O)(=O)c2ccc(OCC#CCO)cc2)[C@H]1C(=O)NO [Apratastat, reference compound] : pIC50 is 7.15

====

Exercise: for every item that follows, state its recorded log10 IC50.
- assayed_system: MMP1 (Homo sapiens (Human), UniProt P03956)
- Sequence (P03956 100-469, species assumed): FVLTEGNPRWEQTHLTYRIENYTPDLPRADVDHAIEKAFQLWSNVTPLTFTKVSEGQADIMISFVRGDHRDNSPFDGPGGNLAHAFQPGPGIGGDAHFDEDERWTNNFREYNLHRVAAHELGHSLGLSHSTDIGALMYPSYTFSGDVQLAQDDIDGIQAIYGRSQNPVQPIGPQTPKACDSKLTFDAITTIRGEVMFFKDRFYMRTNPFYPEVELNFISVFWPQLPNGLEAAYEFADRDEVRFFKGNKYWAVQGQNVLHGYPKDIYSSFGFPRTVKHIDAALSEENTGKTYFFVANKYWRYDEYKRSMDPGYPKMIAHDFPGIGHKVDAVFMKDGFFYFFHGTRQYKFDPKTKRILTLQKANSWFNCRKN
- method_notes: Selectivity assay, MMP1
- Format: biochemical
Please keep in mind that the values are log10 of IC50 expressed in nM.

Record Cc1cc(COc2ccc(S(=O)(=O)NC[C@@H](C(=O)NO)N3CCN(S(C)(=O)=O)CC3)cc2)c2ccccc2n1 [Example 5] . Reported log10 IC50: 3.71

Looking up Cc1cc(COc2ccc(S(=O)(=O)NC[C@@H](C(=O)NO)N3CCN(S(=O)(=O)CC(C)C)CC3)cc2)c2ccccc2n1 [Example 24] , I found its log10 IC50 recorded as 3.31

// Cc1cc(COc2ccc(S(=O)(=O)NC[C@@H](C(=O)NO)N3CCN(S(=O)(=O)C(C)C)CC3)cc2)c2ccccc2n1 [Example 26] : log10 IC50 value = 2.99

Measured log10 IC50, Cc1cc(COc2ccc(S(=O)(=O)NC[C@@H](C(=O)NO)N3CCN(Cc4ccc(C(F)(F)F)cc4)CC3)cc2)c2ccccc2n1 [Example 20] : 3.60

Looking up CC1(C)SCCN(S(=O)(=O)c2ccc(OCC#CCO)cc2)[C@H]1C(=O)NO [Apratastat, reference compound] , I found its log10 IC50 recorded as 2.16

Reported log10 IC50 ( CCN1CCN([C@@H](CNS(=O)(=O)c2ccc(OCc3cc(C)nc4ccccc34)cc2)C(=O)NO)CC1 [Example 19] ) = 3.36

In plain terms, Cc1cc(COc2ccc(S(=O)(=O)NC[C@@H](C(=O)NO)N3CCN(Cc4ccc(F)cc4)CC3)cc2)c2ccccc2n1 [Example 18] has a documented log10 IC50 of 2.83

// recorded log10 IC50 for Cc1ccc(CN2CCN([C@@H](CNS(=O)(=O)c3ccc(OCc4cc(C)nc5ccccc45)cc3)C(=O)NO)CC2)cc1 [Example 21] : 3.07

For reference, reported log10 IC50 for Cc1cc(COc2ccc(S(=O)(=O)NC[C@@H](C(=O)NO)N3CCN(C(=O)C(C)C)CC3)cc2)c2ccccc2n1 [Example 23] stands at 3.35
